Tested on: Mus musculus
assay: Compound was administered at a dose of 100 mg/kg/day to evaluate the percentage reduction in plasma triglyceride (TG) after 6 days of treatment in db/db mice via oral gavage.
Assay type: functional
assay.endpoint: Reduction

>  <compound>
O=C1NC(=O)/C(=C\c2ccc(OC[C@@H]3CCCN3c3ccccn3)cc2)S1

>  <meas.value>
77.75%

$$$$

Name the reported Reduction value associated with the compound `O=C1NC(=O)/C(=C/c2ccc(OCC3CCN(c4ccccn4)CC3)cc2)S1`
27.33%

Name the reported Reduction value associated with the compound `O=C1NC(=O)/C(=C/c2ccc(OC3CCN(c4ccccn4)CC3)cc2)S1`
40.25%

Name the reported Reduction value associated with the compound O=C1NC(=O)/C(=C/c2ccc(OCC3CN(c4ccccn4)CCO3)cc2)S1 (stereo unspecified)
52.5%

Name the reported Reduction value associated with the compound `O=C1NC(=O)/C(=C/c2ccc(OCCN3CCN(c4ccccn4)CC3)cc2)S1`
69.75%

Name the reported Reduction value associated with the compound `CN(CCOc1ccc(/C=C2\SC(=O)NC2=O)cc1)c1ccccn1`
35%
